Assay: Drug metabolism in cynomolgus monkey liver microsomes assessed as 1alpha-hydroxylcinobufagin formation at 100 uM at 37 degC after 30 mins by UFLC-ESI-MS analysis
Format: ADME, Macaca fascicularis
Settings: 0.5 h, read-out: Km(app)
readout type: Km (µM)
One number for each entry, in µM.

Ask: Recorded Km of "CC(=O)O[C@H]1[C@H]2O[C@]23[C@@H]2CC[C@@H]4C[C@@H](O)CC[C@]4(C)[C@H]2CC[C@]3(C)[C@H]1c1ccc(=O)oc1" , please.
Result: 34.2

---

Tested on: Liver microsome
Assay: Drug metabolism in beagle dog liver microsomes assessed as 5beta-hydroxylcinobufaginn formation at 100 uM at 37 degC after 30 mins by UFLC-ESI-MS analysis
Assay type: ADME, Canis lupus familiaris
Conditions: 0.5 h, read-out: Km(app)
readout type: Km (µM)
Answers are plain numbers, in µM.

Ask: // returns reported Km for input "CC(=O)O[C@H]1[C@H]2O[C@]23[C@@H]2CC[C@@H]4C[C@@H](O)CC[C@]4(C)[C@H]2CC[C@]3(C)[C@H]1c1ccc(=O)oc1"
Result: 3.4

---

Assay: Drug metabolism in Colony-bred Chinese Bama minipig liver microsomes assessed as 1alpha-hydroxylcinobufagin formation per mg of protein at 100 uM at 37 degC after 30 mins by UFLC-ESI-MS analysis
Format: ADME, Sus scrofa
Details: pig, 0.5 h
readout type: Vmax (nmol/min/mg)
Give bare numbers, in nmol/min/mg.

Ask: Requested read-out: Vmax. Entry: "CC(=O)O[C@H]1[C@H]2O[C@]23[C@@H]2CC[C@@H]4C[C@@H](O)CC[C@]4(C)[C@H]2CC[C@]3(C)[C@H]1c1ccc(=O)oc1"
Result: 0.25

---

Test system: Liver microsome
Assay: Drug metabolism in human liver microsomes assessed as 5beta-hydroxylcinobufaginn formation at 100 uM […] by UFLC-ESI-MS analysis
Assay type: ADME
Conditions: 0.5 h, read-out: Km(app)
readout type: Km (µM)
One number for each entry, in µM.

Ask: Item CC(=O)O[C@H]1[C@H]2O[C@]23[C@@H]2CC[C@@H]4C[C@@H](O)CC[C@]4(C)[C@H]2CC[C@]3(C)[C@H]1c1ccc(=O)oc1 [CINOBUFAGIN] has what recorded Km?
Result: 20.4

---

Test: Drug metabolism in Swiss-Hauschka (ICR) mouse liver microsomes assessed as 5beta-hydroxylcinobufaginn formation at 100 uM at 37 degC after 30 mins by UFLC-ESI-MS analysis
Format: ADME
Conditions: 0.5 h, read-out: Km(app)
readout type: Km (µM)
Give bare numbers, in µM.

Ask: Any idea what Km was measured for "CC(=O)O[C@H]1[C@H]2O[C@]23[C@@H]2CC[C@@H]4C[C@@H](O)CC[C@]4(C)[C@H]2CC[C@]3(C)[C@H]1c1ccc(=O)oc1" ?
Result: 10.1

---

Test system: Liver microsome
Assay: Drug metabolism in human liver microsomes assessed as 1alpha-hydroxylcinobufagin formation at 100 uM […] by UFLC-ESI-MS analysis
Format: ADME
Conditions: 0.5 h, read-out: Km(app)
readout type: Km (µM)
Answers are plain numbers, in µM.

Ask: Give its Km value. Item: "CC(=O)O[C@H]1[C@H]2O[C@]23[C@@H]2CC[C@@H]4C[C@@H](O)CC[C@]4(C)[C@H]2CC[C@]3(C)[C@H]1c1ccc(=O)oc1"
Result: 12.5
